TARGET: ZFP SBS#1217 (synthetic)
Sequence (chain, as listed by the source): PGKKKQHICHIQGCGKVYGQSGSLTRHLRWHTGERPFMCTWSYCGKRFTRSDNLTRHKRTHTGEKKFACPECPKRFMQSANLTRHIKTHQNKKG
METHOD: EMSA
CONDITION DESCRIPTION: tags: MBP fusion
REPORTED METRIC: Kd (pM)
Field format: number, assumed pM, no unit text.

Task: GET /values?readout=Kd&item= GAAGAGGCA (dsDNA) DNA 1: GAAGAGGCA DNA 2: TGCCTCTTC
Output: 4
